# system_name: rat trace amine receptor (Rattus norvegicus, UniProt Q923Y9, L170Q/L53I/P183L/R211E/S15R)
# Construct: expression vector containing the full-length rat cDNA clone described above; expressed in transfected cells
# Sequence (Q923Y9 whole entry S15R/L53I/L170Q/P183L/R211E): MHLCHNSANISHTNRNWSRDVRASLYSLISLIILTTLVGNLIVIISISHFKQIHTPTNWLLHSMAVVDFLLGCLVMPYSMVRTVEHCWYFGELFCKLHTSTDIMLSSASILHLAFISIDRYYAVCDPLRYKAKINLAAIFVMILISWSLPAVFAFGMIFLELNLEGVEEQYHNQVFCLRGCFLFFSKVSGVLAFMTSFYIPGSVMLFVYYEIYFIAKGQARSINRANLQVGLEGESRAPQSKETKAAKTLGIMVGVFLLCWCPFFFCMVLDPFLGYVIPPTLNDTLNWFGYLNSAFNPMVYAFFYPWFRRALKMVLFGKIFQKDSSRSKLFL
# test_details: cell-based
# Format: cell-based
# measurement_setup: untitled table after Table III, drugs; read-out: EC50 (nM), DRUGS

| molecule_smiles | system_name | units_text | EC50 |
| --- | --- | --- | --- |
| COc1ccc(CCN)cc1 | rat trace amine receptor (Rattus norvegicus, UniProt Q923Y9, L170Q/L53I/P183L/R211E/S15R) | nM | 346 |
| CN[C@@H](C)Cc1ccccc1 | rat trace amine receptor (Rattus norvegicus, UniProt Q923Y9, L170Q/L53I/P183L/R211E/S15R) | nM | 188 |
| CN[C@H](C)Cc1ccccc1 | rat trace amine receptor (Rattus norvegicus, UniProt Q923Y9, L170Q/L53I/P183L/R211E/S15R) | nM | 236 |

###

# system_name: rat trace amine receptor (Rattus norvegicus, UniProt Q923Y9, L170Q/L53I/P183L/R211E/S15R)
# Construct: expression vector containing the full-length rat cDNA clone described above; expressed in transfected cells
# test_details: cell-based
# Format: cell-based
# measurement_setup: EC50 (nM ± SEM)
assay_metric: EC50 (nM)

| compound | assay_metric | units_text | numeric_result |
| --- | --- | --- | --- |
| NCCc1ccc(O)cc1 [p-tyramine] | EC50 | nM | 69 |
| NCC(O)c1ccc(O)cc1 (centres unmarked) [Octopamine] | EC50 | nM | 1300 |
